molecular target: Protein kinase C gamma type (Homo sapiens, UniProt P05129); assay: Inhibition of recombinant human PKCgamma using myelin basic protein as substrate incubated for 60 mins in presence of […] and ATP by microbeta scintillation counter analysis
PROPERTY MEASURED: IC50 (nM)

INSERT INTO assay_data (molecule, property_measured, unit_label, val) VALUES
  ('Cl.Cn1cc(C2=C(c3cn(C4CCN(Cc5ccccn5)CC4)c4ccccc34)C(=O)NC2=O)c2ccccc21 [ENZASTAURIN HYDROCHLORIDE]', 'IC50', 'nM', 83);

----------
experiment: Plasma concentration in athymic nude mouse xenografted with human HCT-116 cells at 75 mg/kg, po administered twice daily measured after 2 hrs by LC-MS analysis; type: ADME, organism-based
PROPERTY MEASURED: concentration at 2 h

INSERT INTO assay_data (compound, property_measured, val) VALUES
  ('Cl.Cn1cc(C2=C(c3cn(C4CCN(Cc5ccccn5)CC4)c4ccccc34)C(=O)NC2=O)c2ccccc21 [ENZASTAURIN HYDROCHLORIDE]', 'concentration at 2 h', '2000 nM');
